# measured.target: Proteasome subunit beta (Trypanosoma cruzi)
# protocol.details: Trypanosoma cruzi proteasome chymotrypsin-like activity (TcProtChymo) assay. Note: in the data most compounds retested in dose-response had high values.
# Format: functional
# Parameters: scale not given: direction of the effect not stated beside the values
# recorded.conditions: 9.37 µM
Threshold rule: Percent Effect greater than or equal to 5% is true; below that, false.

molecule | measured.target | class
c1cnn(CC2CN(c3ncnc4sccc34)CCO2)c1 (stereo unspecified) | Proteasome subunit beta (Trypanosoma cruzi) | true
CCc1cnc2c(c1Nc1ccncc1)c(=O)n(C)c(=O)n2C | Proteasome subunit beta (Trypanosoma cruzi) | true
N#Cc1cccnc1NCCNC(=O)N1CCCC(C(F)(F)F)C1 (stereo unspecified) | Proteasome subunit beta (Trypanosoma cruzi) | true
CCCNC(=O)C(C)n1cc(Br)cn1 (stereo unspecified) | Proteasome subunit beta (Trypanosoma cruzi) | true
Cc1ccccc1CN1CCN(CC(=O)Nc2cccnc2)CC1 | Proteasome subunit beta (Trypanosoma cruzi) | true
O=C(c1cnoc1)N1CCC[C@]2(C[C@@H](OCc3ccccn3)CO2)C1 | Proteasome subunit beta (Trypanosoma cruzi) | true
CCCc1nc(CN2CCCC(Cn3cncn3)C2)no1 (stereo unspecified) | Proteasome subunit beta (Trypanosoma cruzi) | false
COC(=O)N1CCCN(C(=O)NCc2ccc(Cl)s2)CC1 | Proteasome subunit beta (Trypanosoma cruzi) | true
Cc1nc(COCc2cnc3n2CCN(C2CCC2)C3C)cs1 (stereo unspecified) | Proteasome subunit beta (Trypanosoma cruzi) | true
CC(=O)N1CCC2(CC1)CC[C@@]1(C(=O)N(C)C)CN(S(C)(=O)=O)C[C@@H]21 | Proteasome subunit beta (Trypanosoma cruzi) | false
O=C(Nc1ccc(F)cc1)N1C[C@H]2C[C@H](C(=O)N3CCOCC3)[C@@H](C1)O2 | Proteasome subunit beta (Trypanosoma cruzi) | false

---

# measured.target: Proteasome subunit beta (Trypanosoma cruzi) (UniProt O96673)
# Sequence (O96673 as listed by the source): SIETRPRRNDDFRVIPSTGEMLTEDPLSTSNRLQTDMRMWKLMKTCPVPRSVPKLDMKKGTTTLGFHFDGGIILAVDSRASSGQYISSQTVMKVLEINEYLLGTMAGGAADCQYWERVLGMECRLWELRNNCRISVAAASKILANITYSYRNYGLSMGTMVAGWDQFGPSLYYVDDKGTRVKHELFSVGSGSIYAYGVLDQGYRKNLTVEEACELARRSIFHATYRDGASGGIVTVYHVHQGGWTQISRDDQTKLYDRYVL
# protocol.details: Trypanosoma cruzi proteasome chymotrypsin-like activity (TcProtChymo) assay. Note: in the data most compounds retested in dose-response had high values.
# Assay type: functional
# Design: scale not given: direction of the effect not stated beside the values
# recorded.conditions: 9.37 µM
Binning scheme for Percent Effect: Low: < 6%; Mid: ≥ 6% and < 10%; High: ≥ 10%

molecule | class
COc1ccccc1N1CCC(CNCc2cccc(C#N)c2)C1 (configuration not stated) | High
O=C(NCCOCC(F)(F)F)c1ccc(-c2ccco2)[nH]c1=O | Mid
Cc1cc(C2CCCN(C(=O)c3cnn(C)c3)C2)ccn1 (configuration not stated) | High
Cc1cnc(CN(C)CC2CCCN2c2cccnn2)cn1 (configuration not stated) | High
CC(C)c1nc(C(=O)NCCn2ccnc2)nn1-c1cccc(F)c1 | Low
CCN1CC2(CCC1=O)CCN(C(=O)c1ccc(Cl)cc1O)CC2 | Low
CCCn1[nH]cc/c1=N\C(=O)CN1CCCC1c1c(C)nn(C)c1C (configuration not stated) | Low
N#Cc1ccccc1N1CCCN(C(=O)CCn2cccn2)CC1 | Mid
Cn1c(Cn2ccnc2)nnc1C1CCN(Cc2cccnc2N)CC1 | Mid
Cc1cnc2n(c1=O)C(CC(=O)NCc1cc(-c3cccs3)on1)CS2 (configuration not stated) | Mid

---

# measured.target: Sialic acid-binding Ig-like lectin 9 (Homo sapiens)
# protocol.details: Hs-Siglec9 ALPHAscreen SOP 20170721
# Set-up: scale not given: direction of the effect not stated beside the values
# recorded.conditions: 10 µM
Listing of recorded Percent Effect by entry.

compound | Percent Effect [%]
Cc1nc(C)n(C2CCCN(C(=O)CCCOc3ccccc3)C2)n1 (configuration not stated) | 4.93
Cc1n[nH]c(C2CN(C(=O)c3ccco3)CCO2)n1 (configuration not stated) | 3.79
c1cnnc(N2CCCC2CNc2ncnc3ccccc23)c1 (configuration not stated) | -3.44
Cc1cc(C)n(C2CN(CC(=O)N3CCOCC3)C2)n1 | 3.92
c1ccc(CCN2CCOC(Cn3cccn3)C2)nc1 (configuration not stated) | 6.84
CC(C)c1nc(C2CCCN2CCCc2nc3ccccc3o2)no1 (configuration not stated) | 9.51
O=C(CCO)N1CCOC2(CCCN(C(=O)c3ccco3)C2)C1 (configuration not stated) | 19.9
COc1cccc(C(=O)Nc2cc(CC(C)C)nn2C)c1 | 6.82
CCc1csc(C2CCCN(C(=O)c3c[nH]c(C)n3)C2)n1 (configuration not stated) | 1.9
COC(=O)c1ccc(C2CC(=O)Oc3cc(C)[nH]c(=O)c32)cc1 (configuration not stated) | 0.386
Cc1nc(C2CCCN(C(=O)c3cccc4c3OCO4)C2)no1 (configuration not stated) | 0.303
O=C(NCCCN1CCOCC1)Nc1cnc2cc(Cl)ccc2c1O | -8.53
